Exercise: state measured pIC50 for each of the molecules provided.
System: 156681-154-R-J1 tumor spheroid viability
protocol: Anticancer human tumor 156681-154-R-J1 patient-derived melanoma cell line growth inhibition
stated conditions: curve of first compound; second compound 10 µM; spheroids with HUVEC and MSC
pIC50: −log10 of the molar value.

Supply pIC50 value. Item: [2H]c1nc(C)nc([2H])c1-c1cc(NC[C@@H](C)c2cccc3c(C(=O)NC)ccnc23)ncn1 + Cn1nnc2c(C(N)=O)ncn2c1=O
< 5.00

Supply pIC50 value. Item: CC(C)n1c(=O)n(C)c2cnc3cc(F)c(-c4ccc(OCCCN5CCCCC5)nc4)cc3c21 + Cn1nnc2c(C(N)=O)ncn2c1=O
< 5.00

Supply pIC50 value. Item: Cc1cc(C)c(CNC(=O)c2cc(-c3ccc(CN4CCOCC4)cc3)cc3c2cnn3C2CCCC2)c(=O)[nH]1 + Cn1nnc2c(C(N)=O)ncn2c1=O
< 5.00

====

Test system: 156681-154-R-J1 tumor spheroid viability
protocol: Anticancer human tumor 156681-154-R-J1 cell line growth inhibition;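 further: spheroids exposed to compounds for 7 days before readout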;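 on viability, T/C: percent of vehicle control viability where 100% = DMSO-treated spheroids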
stated conditions: second compound 10 µM; first compound 0.316 µM; stronger effect = lower value; spheroids with HUVEC and MSC
Exercise: state measured viability, T/C for each of the compounds provided.
Reply with just the number (in %).

Report viability, T/C from 156681-154-R-J1 tumor spheroid viability testing of COc1cc(C)[nH]c(=O)c1CN1CCc2c(Cl)cc(C(OC)C3COC3)c(Cl)c2C1=O (stereo not drawn) + Cn1nnc2c(C(N)=O)ncn2c1=O
77.7

Report viability, T/C from 156681-154-R-J1 tumor spheroid viability testing of CC(C)n1c(=O)n(C)c2cnc3cc(F)c(-c4ccc(OCCCN5CCCCC5)nc4)cc3c21 + Cn1nnc2c(C(N)=O)ncn2c1=O
70.8

Report viability, T/C from 156681-154-R-J1 tumor spheroid viability testing of CC1COCCN1c1cc(-c2ccnn2C)c2ccnc(-c3ccn[nH]3)c2n1 (stereo not drawn) + Cn1nnc2c(C(N)=O)ncn2c1=O
23.2

====

Tested on: 156681-154-R-J1 tumor spheroid viability
protocol: Anticancer human tumor 156681-154-R-J1 cell line growth inhibition;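 further: spheroids exposed to compounds for 7 days before readout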;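 on viability, T/C: percent of vehicle control viability where 100% = DMSO-treated spheroids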
stated conditions: second compound 0.0003 µM; first compound 0.316 µM; stronger effect = lower value; spheroids with HUVEC and MSC
reported metric: viability, T/C

Supply viability, T/C value. Item: CC1COCCN1c1cc(-c2ccnn2C)c2ccnc(-c3ccn[nH]3)c2n1 (centres undefined) + COc1cc2c(cc1O)CCNC21CSC2c3c(OC(C)=O)c(C)c4c(c3C(COC1=O)N1C(O)C3Cc5cc(C)c(OC)c(O)c5C(C21)N3C)OCO4
23.9%

Supply viability, T/C value. Item: COc1cc(C)[nH]c(=O)c1CN1CCc2c(Cl)cc(C(OC)C3COC3)c(Cl)c2C1=O (centres undefined) + COc1cc2c(cc1O)CCNC21CSC2c3c(OC(C)=O)c(C)c4c(c3C(COC1=O)N1C(O)C3Cc5cc(C)c(OC)c(O)c5C(C21)N3C)OCO4
87.7%

Supply viability, T/C value. Item: COc1ccc([C@@H](O)c2cc(-c3ncnc4cc(N5CCOCC5)ccc34)c(F)cc2Cl)nn1 + COc1cc2c(cc1O)CCNC21CSC2c3c(OC(C)=O)c(C)c4c(c3C(COC1=O)N1C(O)C3Cc5cc(C)c(OC)c(O)c5C(C21)N3C)OCO4
54.1%

Supply viability, T/C value. Item: [2H]c1nc(C)nc([2H])c1-c1cc(NC[C@@H](C)c2cccc3c(C(=O)NC)ccnc23)ncn1 + COc1cc2c(cc1O)CCNC21CSC2c3c(OC(C)=O)c(C)c4c(c3C(COC1=O)N1C(O)C3Cc5cc(C)c(OC)c(O)c5C(C21)N3C)OCO4
80%

All figures here come from PubChem BioAssay AID1845195.
